The origin of these recorded values is the NIST ThermoML archive (doi:10.1021/acs.jced.9b00185).

# RUN CONDITIONS: 298.15 K; 101.33 kPa; Liquid; Vibrating tube method
Quick reference: mass density of the listed items.
Give a bare numeral; the unit kg/m3 is implied.

Sample records with mass density:
>  <MOLECULE>
CCCCCCCCCC

>  <mass density [kg/m3]>
726.61

$$$$
>  <MOLECULE>
CCCCCCCCCCCC

>  <mass density [kg/m3]>
745.2

$$$$
>  <MOLECULE>
CCCCCCCCCCCCCCCC

>  <mass density [kg/m3]>
769.8

$$$$
>  <MOLECULE>
CCCCCCCCCCCCCC

>  <mass density [kg/m3]>
759.17

$$$$
>  <MOLECULE>
CCCCCCCCCC(=O)OC [methyl decanoate]

>  <mass density [kg/m3]>
868.02

$$$$

Recorded result, `CCCCCCCC` , mass density: 698.45

Recorded result, `CCCCCC` , mass density: 654.81
